- tested.on: T1, P8mS
- T1 chain: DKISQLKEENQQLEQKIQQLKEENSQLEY
- protocol: two-hybrid library CCNG1;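 note: natural log of median RNA to DNA barcode read ratio; higher means stronger binding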
Please respond with label 1 when measured interaction score is strictly beneath -0.8, and with label 0 in all other cases.

>  <binder>
DKISQLKEENQQLEQKIQQLKEENSQLEY [P8mS]

>  <category.label>
label 1

$$$$
>  <binder>
DKNSQLKEENSQLEEKIQQLKEKIQQLKY [P10mS]

>  <category.label>
label 0

$$$$
>  <binder>
DEIQSLEEKNSQLKQEISQLEEKNQQLKY [P7mS]

>  <category.label>
label 0

$$$$
>  <binder>
DENQQLEQEISQLEQEISQLEQKNSQLKY [P11mS]

>  <category.label>
label 0

$$$$
>  <binder>
DEIQQLEEEISQLEQKNSQLKEKNQQLKY [P3mS]

>  <category.label>
label 1

$$$$
>  <binder>
DENSQLEEKISQLKQKNSQLKEEIQQLEY [P5mS]

>  <category.label>
label 1

$$$$
>  <binder>
DKNSQLKEKISQLKEKIQQLKEENQQLEY [P12mS]

>  <category.label>
label 1

$$$$

Now consider a different binder.
*Q* Identify whether the binder DKISQLKQKIQQLKQENQQLEEENSQLEY [P4mS] records interaction score below -0.8.
*A* label 1

Values from paper PMC10397247
